For each entry below, report its pKi value.
target: Histamine H3 receptor (UniProt Q9Y5N1); assay: Binding assay for human or rat histamine H3 receptor ([3H] R-α-methylhistamine); settings: [3H] R-α-methylhistamine 3.0 nM; rat brain frontal cortex or recombinant human receptor in CHO cells (not specified which)
Where a name gives a salt, the structure may show the parent alone.
Give bare numbers, as −log10 of the molar value.

Field: example entries. Status: answers known.
- Compound: "O=S(=O)(c1ccccc1F)N1CCc2nc(OC3CCN(C4CCC4)CC3)sc2C1 [Example 20]"
  pKi: 8.13
- Compound: "O=C(C1CC1)N1CCc2nc(OC3CCN(C4CCC4)CC3)sc2C1.O=C(O)C(O)C(O)C(=O)O [Example 4, tartrate]"
  pKi: 8.14

Give one value of pKi per listed compound.
1. O=C(c1ccccc1F)N1CCc2nc(OC3CCN(C4CCC4)CC3)sc2C1 [Example 6, tartrate]
2. O=C(C1CCC1)N1CCc2nc(OC3CCN(C4CC4)CC3)sc2C1 [Example 11, tartrate]

7.87
7.92

----------
Molecular target: Histamine H3 receptor (UniProt Q9Y5N1)
Test: Binding assay for human or rat histamine H3 receptor ([3H] R-α-methylhistamine)
Details: [3H] R-α-methylhistamine 3.0 nM; rat brain frontal cortex or recombinant human receptor in CHO cells (not specified which)
Method: Compounds can be evaluated according to the following procedures. • Receptor source: Rat brain frontal cortex or recombinant human cDNA expressed in CHO cells • Radioligand: [^3H] R-α-methylhistamine • Final ligand concentration—[3.0 nM] • Non-specific determinant: R-α-methylhistamine (100 uM) • Reference compound: R-α-methylhistamine • Positive control: R-α-methylhistamine Incubation Conditions: […]
Counter-ions that a name gives are not always drawn.
Recorded Endpoint: Ki (nM)
One number for each entry, in nM.

- Molecule: "O=C(N1CCCCC1)N1CCc2nc(OC3CCN(C4CCC4)CC3)sc2C1 [Example 30, hydrochloride]"
  System Tested: "Histamine H3 receptor (UniProt Q9Y5N1)"
  Units: "nM"
  Reported Value: 4.19

Give one value of Ki per listed molecule.
1. O=C(CC1CC1)N1CCc2nc(OC3CCN(C4CCC4)CC3)sc2C1
2. O=C(c1cccnc1)N1CCc2nc(OC3CCN(C4CCC4)CC3)sc2C1 [Example 26, tartrate]
3. O=C(C1CCOCC1)N1CCc2nc(OC3CCN(C4CCC4)CC3)sc2C1
4. O=C(CN1CCCCC1)N1CCc2nc(OC3CCN(C4CCC4)CC3)sc2C1 [Example 18, tartrate]
5. O=C(C1CCCC1)N1CCc2nc(OC3CCN(C4CCC4)CC3)sc2C1 [Example 32, tartrate]

[12.3, 32.5, 39, 6.96, 4.6]

----------
For each entry below, report its Tmax value.
test: Rodent pharmacokinetic study; format: in vivo, Male Wistar rats; conditions: whole blood; Wistar male rat, per oral, 3 mg/kg, water, blood
One number for each entry, in min.

- Compound: "O=C(CN1CCOCC1)N1CCc2nc(OC3CCN(C4CCC4)CC3)sc2C1.O=C(O)C(O)C(O)C(=O)O [Example 12]"
  Units: "min"
  Tmax: 49.8
- Compound: "CCC(=O)N1CCc2nc(OC3CCN(C4CCC4)CC3)sc2C1.O=C(O)C(O)C(O)C(=O)O [Example 1]"
  Units: "min"
  Tmax: 25.2

Requested read-out: Tmax. Entry: O=C(C1CCOCC1)N1CCc2nc(OC3CCN(C4CCC4)CC3)sc2C1 [Example 28] 49.8
